Each recorded value in this set is attributed to patent US6162799A.

System: Myzus persicae
Experiment: Aphicidal activity, aphid-dip
Format: in vivo
Conditions: susceptible strain USIL, read-out: Aphid-dip result, % kill M.P. USIL
Description: Activity against resistant (R) and susceptible (S) strains of aphid (Myzus persicae) and Aphis gossypiae was assessed using the following two methods. […] Tubes containing aphids were dipped into insecticide solutions for 10 seconds, dried on blotting paper, and then inverted and tapped to cause treated aphids to fall to the unimmersed end of each tube. […] Mortality was assessed at 24, 48 and 72 hours. […]
Assign labels as follows, please: satisfied for mortality at 100 ppm below 90%; not satisfied for mortality at 100 ppm equal to or exceeding 90%.

line_notation | target | class_name
C[Si](C)(C)CCCCCCC1=C(O)C(=O)c2ccccc2C1=O | Myzus persicae | not satisfied
C[Si](C)(C)CCCCCCCCC1=C(O)C(=O)c2ccccc2C1=O | Myzus persicae | not satisfied
C[Si](C)(C)CCCCCCCC1=C(O)C(=O)c2ccccc2C1=O | Myzus persicae | not satisfied
CC(=O)OC1=C(CC[Si](C)(C)C)C(=O)c2ccccc2C1=O | Myzus persicae | satisfied
C[Si](C)(C)CCCCCCCCCC1=C(O)C(=O)c2ccccc2C1=O | Myzus persicae | not satisfied
C[Si](C)(C)CCCCCC1=C(O)C(=O)c2ccccc2C1=O | Myzus persicae | not satisfied
CC(=O)OC1=C(CCCCCCCCC[Si](C)(C)C)C(=O)c2ccccc2C1=O | Myzus persicae | satisfied
C[Si](C)(C)CCC1=C(O)C(=O)c2ccccc2C1=O | Myzus persicae | satisfied
